Reference source: the supplement of paper PMC11061612

- Tested on: KNS-62 (Squamous Cell Lung Carcinoma);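 also: after 72 h of two-drug dosing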
- TEST PROTOCOL: Bliss excess, mean over the matrix (fraction); higher = more synergy
Would you mind labelling by Bliss excess? At or over -0.02 is Fulfilled, under is Not fulfilled.

| COMPOUND | STUDY SYSTEM | DISCRETE LABEL |
| --- | --- | --- |
| C[C@@H]1COCCN1c1cc(C2([S@](C)(=N)=O)CC2)nc(-c2ccnc3[nH]ccc23)n1 [AZD6738] + C1CC(C1)(C(=O)[O-])C(=O)[O-].N.N.[Pt+2] [Carboplatin] (first compound max 10 µM, 7x7, partner max 10 µM) | KNS-62 (Squamous Cell Lung Carcinoma) | Not fulfilled |
| CN(CCO)CC[C@H](CSc1ccccc1)Nc1ccc(S(=O)(=O)NC(=O)c2ccc(N3CCC([C@@H](O)c4ccccc4-c4ccc(Cl)cc4)CC3)cc2)cc1S(=O)(=O)C(F)(F)F [AZD4320] + CS(=O)(=O)CCNCc1ccc(-c2ccc3ncnc(Nc4ccc(OCc5cccc(F)c5)c(Cl)c4)c3c2)o1 [Lapatinib] (first compound max 1 µM, 7x7, partner max 10 µM) | KNS-62 (Squamous Cell Lung Carcinoma) | Fulfilled |
| C[C@@H](Nc1cc(F)cc(F)c1)c1cc(C(=O)N(C)C)cc2c(=O)cc(N3CCOCC3)oc12 [AZD8186] + C1CN(CCC1(C(=O)N[C@@H](CCO)C2=CC=C(C=C2)Cl)N)C3=NC=NC4=C3C=CN4 [AZD5363] (first compound max 10 µM, 7x7, partner max 10 µM) | KNS-62 (Squamous Cell Lung Carcinoma) | Not fulfilled |
| Cc1c2c(nn1C)CSCc1cc(n(C)n1)CSc1cc(c3ccccc3c1)OCCCc1c(C(=O)O)n(C)c3c-2c(Cl)ccc13 [AZD5991] + Nc1ccn([C@@H]2O[C@H](CO)[C@@H](O)C2(F)F)c(=O)n1 [Gemcitabine] (first compound max 1 µM, 7x7, partner max 0.3 µM) | KNS-62 (Squamous Cell Lung Carcinoma) | Fulfilled |
| Cc1c2c(nn1C)CSCc1cc(n(C)n1)CSc1cc(c3ccccc3c1)OCCCc1c(C(=O)O)n(C)c3c-2c(Cl)ccc13 [AZD5991] + CC(=O)O[C@H]1C(=O)[C@@]2(C)[C@H]([C@H](OC(=O)c3ccccc3)[C@]3(O)C[C@H](OC(=O)[C@H](O)[C@@H](NC(=O)c4ccccc4)c4ccccc4)C(C)=C1C3(C)C)[C@]1(OC(C)=O)CO[C@@H]1C[C@@H]2O [Paclitaxel] (first compound max 1 µM, 7x7, partner max 3 µM) | KNS-62 (Squamous Cell Lung Carcinoma) | Fulfilled |
| CN(CCO)CC[C@H](CSc1ccccc1)Nc1ccc(S(=O)(=O)NC(=O)c2ccc(N3CCC([C@@H](O)c4ccccc4-c4ccc(Cl)cc4)CC3)cc2)cc1S(=O)(=O)C(F)(F)F [AZD4320] + Cc1cc2ncnn2cc1Nc1ncc2c(n1)n(C1CCOCC1)c(=O)n2C [AZD7648] (first compound max 1 µM, 7x7, partner max 10 µM) | KNS-62 (Squamous Cell Lung Carcinoma) | Not fulfilled |

====

Consider the following compounds and their measured combination Emax readings.
- Test system: NTERA-2-cl-D1 (Other Solid Carcinomas)
- TEST PROTOCOL: combination Emax (second highest fraction inhibited in the dose matrix, 72 h); higher = more inhibition; extreme values may be limits of the assay

| COMPOUND | combination Emax |
| --- | --- |
| COc1cccc(OCCCN)c1-c1cc(Nc2cnc(C#N)cn2)n[nH]1 [Prexasertib] + CCc1c2c(nc3ccc(O)cc13)-c1cc3c(c(=O)n1C2)COC(=O)[C@]3(O)CC [SN-38] (first compound max 1 µM, 7x7, partner max 0.3 µM) | 0.981 |
| C=CCn1c(=O)c2cnc(Nc3ccc(N4CCN(C)CC4)cc3)nc2n1-c1cccc(C(C)(C)O)n1 [AZD1775] + C[C@@H]1COCCN1C2=NC(=NC(=C2)C3(CC3)[S@](=N)(=O)C)C4=C5C=CNC5=NC=C4 [AZD6738] (first compound max 1 µM, partner max 10 µM) | 0.943 |
| C[C@@H](Oc1cc(-c2cnn(C3CCNCC3)c2)cnc1N)c1c(Cl)ccc(F)c1Cl [Crizotinib] + CC1=C(C(=CC=C1)Cl)NC(=O)C2=CN=C(S2)NC3=CC(=NC(=N3)C)N4CCN(CC4)CCO [Dasatinib] (first compound max 10 µM, 7x7, partner max 2 µM) | 0.956 |
| Cc1cc2ncnn2cc1Nc1ncc2c(n1)n(C1CCOCC1)c(=O)n2C [AZD7648] + COc1cc([C@@H]2c3cc4c(cc3[C@@H](O[C@@H]3O[C@@H]5CO[C@@H](C)O[C@H]5[C@H](O)[C@H]3O)[C@H]3COC(=O)[C@H]23)OCO4)cc(OC)c1O [Etoposide] (first compound max 10 µM, 7x7, partner max 10 µM) | 0.575 |
| O=C(c1cc(Cc2n[nH]c(=O)c3ccccc23)ccc1F)N1CCN(C(=O)C2CC2)CC1 [Olaparib] + CN(CC[C@H](CSC1=CC=CC=C1)NC2=C(C=C(C=C2)S(=O)(=O)NC(=O)C3=CC=C(C=C3)N4CCC(CC4)[C@H](C5=CC=CC=C5C6=CC=C(C=C6)Cl)O)S(=O)(=O)C(F)(F)F)CCO [AZD4320] (first compound max 10 µM, 7x7, partner max 1 µM) | 0.689 |
| Cn1cnc2c(F)c(Nc3ccc(Br)cc3Cl)c(C(=O)NOCCO)cc21 [Selumetinib] + C=CCn1c(=O)c2cnc(Nc3ccc(N4CCN(C)CC4)cc3)nc2n1-c1cccc(C(C)(C)O)n1 [AZD1775] (first compound max 10 µM, partner max 1 µM) | 0.271 |
| CCN(CCO)CCCOc1ccc2c(Nc3cc(CC(=O)Nc4cccc(F)c4)[nH]n3)ncnc2c1 [AZD2811] + C[C@@H]1COCCN1C2=NC(=NC(=C2)C3(CC3)[S@](=N)(=O)C)C4=C5C=CNC5=NC=C4 [AZD6738] (first compound max 1 µM, 7x7, partner max 10 µM) | 0.784 |

====

- Test system: SUP-HD1 (Hodgkin's Lymphoma)
- TEST PROTOCOL: combination Emax (second highest fraction inhibited in the dose matrix, 72 h); higher = more inhibition; extreme values may be limits of the assay

| COMPOUND | combination Emax |
| --- | --- |
| CCc1c2c(nc3ccc(O)cc13)-c1cc3c(c(=O)n1C2)COC(=O)[C@]3(O)CC [SN-38] + O=C(c1cc(Cc2n[nH]c(=O)c3ccccc23)ccc1F)N1CCN(C(=O)C2CC2)CC1 [Olaparib] (first compound max 0.3 µM, 7x7, partner max 10 µM) | 0.895 |
| COc1cccc(OCCCN)c1-c1cc(Nc2cnc(C#N)cn2)n[nH]1 [Prexasertib] + C[C@@H]1COCCN1C2=NC(=NC(=C2)C3(CC3)[S@](=N)(=O)C)C4=C5C=CNC5=NC=C4 [AZD6738] (first compound max 1 µM, 7x7, partner max 10 µM) | 0.903 |
| COc1cccc(OCCCN)c1-c1cc(Nc2cnc(C#N)cn2)n[nH]1 [Prexasertib] + O=C(c1cc(Cc2n[nH]c(=O)c3ccccc23)ccc1F)N1CCN(C(=O)C2CC2)CC1 [Olaparib] (first compound max 1 µM, 7x7, partner max 10 µM) | 0.802 |
| Cc1c2c(nn1C)CSCc1cc(n(C)n1)CSc1cc(c3ccccc3c1)OCCCc1c(C(=O)O)n(C)c3c-2c(Cl)ccc13 [AZD5991] + CN(C)CCCOc1ccc(-c2ccc3ncc4c(c3c2)n(C2CCOCC2)c(=O)n4C)cn1 [AZD0156] (first compound max 1 µM, 7x7, partner max 1 µM) | 0.617 |

====

- Tested on: SK-MEL-24 (Melanoma)
- TEST PROTOCOL: combination Emax (second highest fraction inhibited in the dose matrix, 72 h); higher = more inhibition; extreme values may be limits of the assay

| COMPOUND | combination Emax |
| --- | --- |
| CC(=O)c1c(C)c2cnc(Nc3ccc(N4CCNCC4)cn3)nc2n(C2CCCC2)c1=O [Palbociclib] + CC1(C)CCC(CN2CCN(c3ccc(C(=O)NS(=O)(=O)c4ccc(NCC5CCOCC5)c([N+](=O)[O-])c4)c(Oc4cnc5[nH]ccc5c4)c3)CC2)=C(c2ccc(Cl)cc2)C1 [Venetoclax] (first compound max 10 µM, 7x7, partner max 1 µM) | 0.182 |
| C=CCn1c(=O)c2cnc(Nc3ccc(N4CCN(C)CC4)cc3)nc2n1-c1cccc(C(C)(C)O)n1 [AZD1775] + CCc1c2c(nc3ccc(O)cc13)-c1cc3c(c(=O)n1C2)COC(=O)[C@]3(O)CC [SN-38] (first compound max 1 µM, partner max 0.3 µM) | 0.806 |
| Cc1c2c(nn1C)CSCc1cc(n(C)n1)CSc1cc(c3ccccc3c1)OCCCc1c(C(=O)O)n(C)c3c-2c(Cl)ccc13 [AZD5991] + CN(C)CCCOc1ccc(-c2ccc3ncc4c(c3c2)n(C2CCOCC2)c(=O)n4C)cn1 [AZD0156] (first compound max 1 µM, 7x7, partner max 1 µM) | 0.232 |
| C[C@@H](Oc1cc(-c2cnn(C3CCNCC3)c2)cnc1N)c1c(Cl)ccc(F)c1Cl [Crizotinib] + CC1=C(C(=CC=C1)Cl)NC(=O)C2=CN=C(S2)NC3=CC(=NC(=N3)C)N4CCN(CC4)CCO [Dasatinib] (first compound max 10 µM, 7x7, partner max 2 µM) | 0.871 |
| Cn1cnc2c(F)c(Nc3ccc(Br)cc3Cl)c(C(=O)NOCCO)cc21 [Selumetinib] + CC(C)n1c(=O)n(C)c2cnc3cc(F)c(-c4ccc(OCCCN5CCCCC5)nc4)cc3c21 [AZD1390] (first compound max 10 µM, 7x7, partner max 0.3 µM) | 0.495 |
| C[C@@H](Nc1cc(F)cc(F)c1)c1cc(C(=O)N(C)C)cc2c(=O)cc(N3CCOCC3)oc12 [AZD8186] + CC(=O)c1c(C)c2cnc(Nc3ccc(N4CCNCC4)cn3)nc2n(C2CCCC2)c1=O [Palbociclib] (first compound max 10 µM, 7x7, partner max 10 µM) | 0.449 |
| COc1nnc2ccc(N3CCC(c4ccc(OCCN5CCN(C)C(=O)[C@H]5C)cc4)CC3)nn12 [AZD5153] + CC1(C)CCC(CN2CCN(c3ccc(C(=O)NS(=O)(=O)c4ccc(NCC5CCOCC5)c([N+](=O)[O-])c4)c(Oc4cnc5[nH]ccc5c4)c3)CC2)=C(c2ccc(Cl)cc2)C1 [Venetoclax] (first compound max 1 µM, 7x7, partner max 1 µM) | 0.474 |
| Cc1c2c(nn1C)CSCc1cc(n(C)n1)CSc1cc(c3ccccc3c1)OCCCc1c(C(=O)O)n(C)c3c-2c(Cl)ccc13 [AZD5991] + Cn1cnc2c(F)c(Nc3ccc(Br)cc3Cl)c(C(=O)NOCCO)cc21 [Selumetinib] (first compound max 1 µM, 7x7, partner max 3 µM) | 0.705 |
| COc1cccc(OCCCN)c1-c1cc(Nc2cnc(C#N)cn2)n[nH]1 [Prexasertib] + Cc1cc2ncnn2cc1Nc1ncc2c(n1)n(C1CCOCC1)c(=O)n2C [AZD7648] (first compound max 1 µM, 7x7, partner max 10 µM) | 0.61 |
| NC1(C(=O)N[C@@H](CCO)c2ccc(Cl)cc2)CCN(c2ncnc3[nH]ccc23)CC1 [Capivasertib] + C[C@@H]1COCCN1C2=NC(=NC(=C2)C3(CC3)[S@](=N)(=O)C)C4=C5C=CNC5=NC=C4 [AZD6738] (first compound max 10 µM, 7x7, partner max 10 µM) | 0.688 |
| Cc1c2c(nn1C)CSCc1cc(n(C)n1)CSc1cc(c3ccccc3c1)OCCCc1c(C(=O)O)n(C)c3c-2c(Cl)ccc13 [AZD5991] + CC1(C)CCC(CN2CCN(c3ccc(C(=O)NS(=O)(=O)c4ccc(NCC5CCOCC5)c([N+](=O)[O-])c4)c(Oc4cnc5[nH]ccc5c4)c3)CC2)=C(c2ccc(Cl)cc2)C1 [Venetoclax] (first compound max 1 µM, 7x7, partner max 1 µM) | 0.336 |
| Cc1c2c(nn1C)CSCc1cc(n(C)n1)CSc1cc(c3ccccc3c1)OCCCc1c(C(=O)O)n(C)c3c-2c(Cl)ccc13 [AZD5991] + CCN(CCO)CCCOc1ccc2c(Nc3cc(CC(=O)Nc4cccc(F)c4)[nH]n3)ncnc2c1 [AZD2811] (first compound max 1 µM, 7x7, partner max 1 µM) | 0.362 |
| C[C@@H]1COCCN1c1cc(C2([S@](C)(=N)=O)CC2)nc(-c2ccnc3[nH]ccc23)n1 [AZD6738] + Nc1ccn([C@@H]2O[C@H](CO)[C@@H](O)C2(F)F)c(=O)n1 [Gemcitabine] (first compound max 10 µM, 7x7, partner max 0.3 µM) | 0.841 |
